All values here come from patent US20150064204A1.

Each entry below carries its recorded Proliferation EC50.
- Tested Target: T1, human GITR (human, UniProt Q9Y5U5 26-241)
- T1 sequence: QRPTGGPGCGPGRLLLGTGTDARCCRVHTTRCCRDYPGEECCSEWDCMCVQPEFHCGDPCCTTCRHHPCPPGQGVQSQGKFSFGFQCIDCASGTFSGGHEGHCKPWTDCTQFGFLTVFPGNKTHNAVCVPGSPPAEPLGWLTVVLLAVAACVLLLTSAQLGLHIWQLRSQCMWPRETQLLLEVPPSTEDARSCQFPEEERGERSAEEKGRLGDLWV
- Method Summary: cell-based or functional assay
Measured Quantity: Proliferation EC50

- 7A10 (antibody, human IgG1, kappa, V domains shown, Parental fully human antibody; also called Ab18; SS-10944) VH: QVQLVESGGGVVQPGRSLRLSCAASGFTFSSYGMHWVRQAPGKGLEWMAVIWYVGSNKYYADSVKGRFTISRDNSKNTLYLQMNSLSAEDTAVYYCARGGELGRDYYSGMDVWGQGTTVTVSS VL: DIQMTQSPSSLSASVGDRVTITCRASQGIRNDLGWYQQKPGKAPKRLIYAASSLQSGVPSRFSGSGSGTEFTLTISSLQPEDFATYYCQQHNSYPWTFGQGTKVEIKR: 12 ng/mL
- 9H6 (antibody, human IgG1, kappa, V domains shown, Parental fully human antibody; also called Ab19; SS-10945) VH: QVQLVESGGGVVQPGRSLRLSCVASGFTFSSYGMHWIRQAPGKGLEWVAVIWYEGSNKYYADSVKGRFTISRDNSKNTLYLQMNSLRAEDTAVYYCARGGRLGKDYYSGMDVWGQGTTVTVSS VL: DIQMTQSPSSLSASVGDRVTITCRASQGIRNDLGWYQQKPGKAPNRLIYATSSLQSGVPSRFSGSGSGTEFTLTISSLQPEDFATYYCLQHNTYPWTFGQGTKVEIKR: 7 ng/mL
- 7A10v1 (antibody, human IgG1, kappa, V domains shown, Engineered variant; also called Ab39; SS-13810) VH: QVQLVESGGGVVQPGRSLRLSCAASGFTFSSYGMHWVRQAPGKGLEWMAVIWYVGSNKYYADSVKGRFTISRDNSKNTLYLQMNSLRAEDTAVYYCARGGELGRDYYSGMDVWGQGTTVTVSS VL: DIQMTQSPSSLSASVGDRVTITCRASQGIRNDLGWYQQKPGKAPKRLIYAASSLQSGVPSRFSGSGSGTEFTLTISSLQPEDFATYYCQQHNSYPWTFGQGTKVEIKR: 3 ng/mL
- 33C9 (antibody, human IgG1, kappa, V domains shown, Parental fully human antibody; also called Ab2; SS-12413) VH: QVQVVESGGGVVQPGRSLRLSCAASGFTFSSYGMHWVRQAPGKGLEWVSVIWYEGSNKYYADSVKGRFTISRDNSKNTLYLQMNSLRAEDTAVYYCARGGLLGYYYYYGMDVWGQGTTVTVSS VL: DIQMTQSPSSLSASVGDRVTITCRASQGIRNDLGWYQQKPGKAPKRLIYDASSLQSGVPSRFSGSGSGTEFTLTISSLQPEDFATYYCLQHHSYPWTFGQGTKVEIKR: 10 ng/mL
- 5H7v13 (antibody, human IgG1, kappa, V domains shown) VH: QVQLQESGPGLVKPSETLSLTCTVSGGSISSGGYFWSWIRQPPGKGLEWIGYIYYSGTTYYNPSLKSRVTISIDTSKNQFSLKLSSVTAADTAVYYCARDLFYYDTSGPRGFDPWGQGTLVTVSS VL: EIVLTQSPGTLSLSPGERATLSCRASQTVSSNYLAWYQQKPGQAPRLLIYGSSTRATGIPDRFSGSGSGTDFTLTISRLEPEDFAVYYCQQYESSPWTFGQGTKVEIKR: 113 ng/mL
